MEASURED ON: Luciferin 4-monooxygenase (Photinus pyralis) (UniProt P08659)
Sequence (P08659 whole entry, looked up): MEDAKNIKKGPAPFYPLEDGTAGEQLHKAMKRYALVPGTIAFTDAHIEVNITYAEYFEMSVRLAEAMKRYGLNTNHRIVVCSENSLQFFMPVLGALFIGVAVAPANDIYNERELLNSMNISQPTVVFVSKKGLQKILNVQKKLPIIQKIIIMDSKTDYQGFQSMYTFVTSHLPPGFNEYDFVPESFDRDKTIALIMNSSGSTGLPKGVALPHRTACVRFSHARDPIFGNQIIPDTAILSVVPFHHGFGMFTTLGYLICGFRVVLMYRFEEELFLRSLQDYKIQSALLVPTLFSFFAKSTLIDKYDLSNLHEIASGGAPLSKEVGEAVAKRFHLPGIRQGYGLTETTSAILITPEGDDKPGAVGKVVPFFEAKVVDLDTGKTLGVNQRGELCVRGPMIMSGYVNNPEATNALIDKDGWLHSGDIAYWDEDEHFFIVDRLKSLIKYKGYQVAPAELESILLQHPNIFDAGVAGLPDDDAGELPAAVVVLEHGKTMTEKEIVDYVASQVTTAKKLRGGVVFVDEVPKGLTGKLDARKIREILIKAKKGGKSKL
PROTOCOL: qHTS assay to identify small molecule inhibitors of firefly luciferase (AID 1224835); further: nearly all actives have a fitted effect of over 25% in size
CONDITIONS USED: purified P. pyralis luciferase, luminescence inhibition; series mostly up to 115 µM
Records with an inconclusive call do not appear. The source made the active and inactive calls. The call rests on the fitted dose curve; in most records, active means well fitted inhibition curve with a large enough effect in the repeat runs; inconclusive means weak or mixed curves; inactive means flat fitted curve, though single readings scatter.
Your answer must be one of the following: 1 for active, -1 for inactive

Prompt: Returns: the outcome recorded for `Cc1c(C)n(Cc2ccccc2)c2ccc(C(=O)OCCN(C)C)cc12` in this assay.
Completion: 1

Prompt: What would you report for `CCCCCCOc1ccc(O)cc1` ?
Completion: 1

Prompt: What would you report for `Cc1cnccn1` ?
Completion: -1

Prompt: What would you report for `c1ccc(Sc2ccccc2)cc1` ?
Completion: -1

Prompt: What would you report for `CC1CCCCC1` ?
Completion: -1

Prompt: What would you report for `CC(=O)Nc1ccc(O)cc1` ?
Completion: -1

Prompt: What would you report for `Cc1cccc(N(C)C)c1` ?
Completion: -1

Prompt: What would you report for `CCC1(c2cnc[nH]2)Cc2ccccc2C1` ?
Completion: -1

Prompt: What would you report for `CSc1c(Cl)c(Cl)c(Cl)c(Cl)c1Cl` ?
Completion: -1

Prompt: What would you report for CC(O)C#CC(C)O (stereo unspecified) ?
Completion: -1

Prompt: What would you report for CO[Si](CCC1CCC2OC2C1)(OC)OC (stereo unspecified) ?
Completion: -1

Prompt: What would you report for `CC(C)(C)c1cc(CCC(=O)NCCCCCCNC(=O)CCc2cc(C(C)(C)C)c(O)c(C(C)(C)C)c2)cc(C(C)(C)C)c1O` ?
Completion: -1

Prompt: What would you report for c1cc(OCC2CO2)cc(OCC2CO2)c1 (stereo unspecified) ?
Completion: -1

Prompt: What would you report for `CCOC(OCC)C(=O)c1ccccc1` ?
Completion: -1

Prompt: What would you report for `CCCCCCCCCCCCCc1ccccc1` ?
Completion: -1

Prompt: What would you report for `Brc1ccccn1` ?
Completion: -1

Prompt: What would you report for CCC(C)c1ccccc1 (stereo unspecified) ?
Completion: -1

Prompt: What would you report for `OCCCCl` ?
Completion: -1

Prompt: What would you report for C=C1C(C)(C)[C@@]2(Cl)C(Cl)[C@]1(Cl)C(Cl)(Cl)C2(Cl)Cl (stereo partly specified) ?
Completion: -1

Prompt: What would you report for `CN(C)c1ccc(N=Nc2ccccc2C(=O)O)cc1` ?
Completion: 1

Prompt: What would you report for `CCOC(/C=C(\C)CCC=C(C)C)OCC` ?
Completion: -1

Prompt: What would you report for `Cc1cn[nH]c1` ?
Completion: -1

Prompt: What would you report for CCCCOC(=O)C(C)CC (stereo unspecified) ?
Completion: -1

Prompt: What would you report for `COCC(=O)O[C@]1(CCN(C)CCCc2nc3ccccc3[nH]2)CCc2cc(F)ccc2[C@@H]1C(C)C` ?
Completion: -1

Prompt: What would you report for `CCCCCCS` ?
Completion: -1

Prompt: What would you report for `CC(C)(c1cc(Br)c(OCCO)c(Br)c1)c1cc(Br)c(OCCO)c(Br)c1` ?
Completion: -1

----------
Kindly supply the reported Potency values for the records listed here.
PROTOCOL: qHTS RealTime-Glo MT Cell Viability Assay in HEK293 cells - 40 hour (AID 1224874); further: potency means the concentration at half of the fitted maximal effect; nearly all actives have a fitted effect of over 50% in size
CONDITIONS USED: RealTime-Glo luminescence
Inconclusive results are not listed. Calls of active or inactive are those of the source. Calls come from the whole dose curve; as a rule, active = well fitted cell-killing curve with a large enough effect in the repeat runs; inconclusive = weak or mixed curves, or effect the other way; inactive = flat fitted curve, though single readings scatter.

Prompt: Any idea what its Potency is? The compound is CCCCC(CC)COC(=O)c1ccc(O)cc1 (configuration not stated)
Completion: 48.8 µM (active)

Prompt: What would you report for `CCCN(CCc1cccs1)[C@H]1CCc2c(O)cccc2C1` ?
Completion: 21.3 µM (active)

Prompt: What would you report for `Cc1cc(Nc2ccc(O)cc2)ccc1N` ?
Completion: 19.4 µM (active)

Prompt: What would you report for `CNCC[C@H](Oc1cccc2ccccc12)c1cccs1` ?
Completion: 23.9 µM (active)

Prompt: What would you report for `O=C1c2c(O)ccc(O)c2C(=O)c2c(NCCNCCO)ccc(NCCNCCO)c21` ?
Completion: 0.019 µM (active)

Prompt: What would you report for `C/C=C/C(=O)Oc1c(CCCCCC(C)C)cc([N+](=O)[O-])cc1[N+](=O)[O-]` ?
Completion: 7.76 µM (active)

Prompt: What would you report for `CN(C)CCCN1c2ccccc2CCc2ccccc21` ?
Completion: 54.9 µM (active)

----------
MEASURED ON: Progesterone receptor (Homo sapiens) (UniProt P06401)
Sequence (P06401 whole entry, looked up): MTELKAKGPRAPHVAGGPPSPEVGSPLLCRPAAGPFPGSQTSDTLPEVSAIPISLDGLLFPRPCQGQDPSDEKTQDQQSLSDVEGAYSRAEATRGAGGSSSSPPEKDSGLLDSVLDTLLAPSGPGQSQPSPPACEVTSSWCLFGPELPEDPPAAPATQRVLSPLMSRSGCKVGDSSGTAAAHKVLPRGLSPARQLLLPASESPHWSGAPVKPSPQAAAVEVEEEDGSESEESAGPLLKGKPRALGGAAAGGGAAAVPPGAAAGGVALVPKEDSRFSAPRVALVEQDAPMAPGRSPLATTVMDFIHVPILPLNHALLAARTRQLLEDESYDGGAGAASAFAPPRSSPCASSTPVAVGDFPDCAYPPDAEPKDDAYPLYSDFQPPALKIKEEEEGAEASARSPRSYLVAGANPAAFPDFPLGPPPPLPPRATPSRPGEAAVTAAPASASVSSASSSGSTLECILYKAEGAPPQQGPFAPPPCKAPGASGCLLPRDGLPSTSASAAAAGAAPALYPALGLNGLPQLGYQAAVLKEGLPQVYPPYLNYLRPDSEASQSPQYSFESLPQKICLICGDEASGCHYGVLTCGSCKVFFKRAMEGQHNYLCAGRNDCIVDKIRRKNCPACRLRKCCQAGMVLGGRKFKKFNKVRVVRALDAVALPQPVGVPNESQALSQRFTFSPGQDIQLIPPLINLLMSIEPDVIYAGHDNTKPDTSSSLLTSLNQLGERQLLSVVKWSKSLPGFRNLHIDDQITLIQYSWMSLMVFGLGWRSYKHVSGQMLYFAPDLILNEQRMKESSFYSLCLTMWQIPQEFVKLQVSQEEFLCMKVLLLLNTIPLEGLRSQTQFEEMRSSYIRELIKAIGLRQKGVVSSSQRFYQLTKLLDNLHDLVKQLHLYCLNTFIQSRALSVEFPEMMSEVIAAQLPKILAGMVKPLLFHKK
PROTOCOL: qHTS assay to identify small molecule antagonists of the progesterone receptor (PR) signaling pathway (AID 1346795)
CONDITIONS USED: PR-UAS-bla HEK293T, beta-lactamase FRET ratio, 16 h; series mostly up to 92.4 µM
Results filed as inconclusive are left out. Activity calls are given as the source filed them. The call rests on the fitted dose curve; in most records, active means well fitted inhibition curve with a large enough effect in the signal ratio in the repeat runs (not every such curve was filed as active); inconclusive means weak or mixed curves; inactive means flat fitted curve, though single readings scatter; the % refers to the signal ratio.
Your answer must be one of the following: active, inactive

Prompt: Returns: the outcome recorded for `Cc1occc1SSc1ccoc1C` in this assay.
Completion: inactive

Prompt: What would you report for `CCCCCCCOC(=O)c1ccccc1C(=O)OCCCCCCC` ?
Completion: inactive

Prompt: What would you report for `Cc1cn[nH]c1` ?
Completion: inactive

Prompt: What would you report for `CCN(CC)CCOC(=O)C1(C2CCCCC2)CCCCC1` ?
Completion: inactive

Prompt: What would you report for CC(C)=CCCC(C)CCOC(=O)C(C)C (centres undefined) ?
Completion: inactive

Prompt: What would you report for `O=C(O)CCCCCCC(=O)O` ?
Completion: inactive

Prompt: What would you report for `CCCCCCCCC(C)=O` ?
Completion: inactive

Prompt: What would you report for CC(NCCC(c1ccccc1)c1ccccc1)c1ccccc1 (centres undefined) ?
Completion: active

Prompt: What would you report for `O=C1Nc2ccc(Cl)cc2[C@@](C#CC2CC2)(C(F)(F)F)O1` ?
Completion: active

Prompt: What would you report for `CCCCCCCCCCCCCCCC` ?
Completion: inactive

Prompt: What would you report for `[O]=[Zr]` ?
Completion: inactive

Prompt: What would you report for `c1ccc(Nc2cccc3ccccc23)cc1` ?
Completion: active

Prompt: What would you report for `CCOC(=O)[C@@](C)(N)Cc1ccc(O)c(O)c1` ?
Completion: inactive

Prompt: What would you report for `c1ccc2c(c1)CCC2` ?
Completion: inactive

Prompt: What would you report for `C/C=C/CO` ?
Completion: inactive

Prompt: What would you report for CC(O)C#CC(C)O (centres undefined) ?
Completion: inactive

Prompt: What would you report for `CC(C)c1ccccc1N` ?
Completion: inactive

Prompt: What would you report for `CCOCN(C(=O)CS(=O)(=O)O)c1c(C)cccc1CC` ?
Completion: inactive

Prompt: What would you report for `CO[C@H]1C=CO[C@@]2(C)Oc3c(C)c(O)c4c(O)c(cc(O)c4c3C2=O)NC(=O)/C(C)=C\C=C/[C@H](C)[C@H](O)[C@@H](C)[C@@H](O)[C@@H](C)[C@H](OC(C)=O)[C@@H]1C` ?
Completion: inactive

----------
PROTOCOL: qHTS assay to identify small molecule antagonists of the sonic hedgehog signaling (Shh) pathway - cell viability counter screen (AID 1259367); further: nearly all actives have a fitted effect of over 55% in size; further: potency means the concentration at half of the fitted maximal effect
CONDITIONS USED: NIH/3T3 Gli1-Luc viability, CellTiter-Fluor, 24 h; series mostly up to 92.4 µM
Records with an inconclusive call do not appear. Calls of active or inactive are those of the source. Calls follow the shape of the dose curve; as a rule, active = well fitted cell-killing curve with a large enough effect in the repeat runs; inconclusive = weak or mixed curves, or effect the other way; inactive = no such curve, though single readings can be large or run the other way.
REPORTED PROPERTY: Potency

Example entries begin here.
CCc1cccc(C)c1 : inactive
CCNc1nc(NC(C)CC)nc(OC)n1 (configuration not stated) : inactive
C/C=C/C=N/NC(=O)c1ccncc1 : 26.6 µM (active)
CCCC(CC)CCCCCCCN (configuration not stated) : inactive
CCCSS/C(CCO)=C(\C)N(C=O)Cc1cnc(C)nc1N : inactive

Prompt: Any idea what its Potency is? The compound is CCC(C)c1cc([N+](=O)[O-])cc([N+](=O)[O-])c1OC(=O)OC(C)C (configuration not stated)
Completion: 68.6 µM (active)

Prompt: What would you report for `CCCOc1sc(C(=O)N2CCC(c3cc(CN)ccc3F)CC2)c(C)c1Br` ?
Completion: 25 µM (active)

Prompt: What would you report for `CC(=O)OC1CCCCC1` ?
Completion: inactive

Prompt: What would you report for `CC1(C)C(=O)N(Br)C(=O)N1Br` ?
Completion: inactive

Prompt: What would you report for `CC1=CCC(=O)O1` ?
Completion: inactive

Prompt: What would you report for CCCCN(CCCC)CCC(O)c1cc2c(Cl)cc(Cl)cc2c2cc(C(F)(F)F)ccc12 (configuration not stated) ?
Completion: inactive

Prompt: What would you report for `NC(=O)c1nc(-c2cccc(-c3cc(F)ccc3OCC(F)(F)C(F)(F)F)c2)n[nH]1` ?
Completion: inactive

----------
PROTOCOL: A CellTox Green Cytotoxicity Assay to monitor cytotoxicity in HEK293 cells - 8 hour (AID 1224884); further: nearly all actives have a fitted effect of over 35% in size
CONDITIONS USED: CellTox Green fluorescence; series mostly up to 76.8 µM
Inconclusive results are not listed. The source made the active and inactive calls. Calls follow the shape of the dose curve; as a rule, active = well fitted activation curve with a large enough effect in the repeat runs; inconclusive = weak or mixed curves; inactive = flat fitted curve, though single readings scatter.
Your answer must be one of the following: active, inactive

Prompt: Returns: the outcome recorded for `CC(=O)Nc1ccc(O)cc1` in this assay.
Completion: inactive

Prompt: What would you report for CN1CCN(C2Cc3ccccc3Sc3ccc(Cl)cc32)CC1 (centres undefined) ?
Completion: active

Prompt: What would you report for CC1CCCCN1CCCOC(=O)c1ccc(OC2CCCCC2)cc1 (centres undefined) ?
Completion: inactive

Prompt: What would you report for `CCCCCCCCCCCCCC[n+]1ccccc1` ?
Completion: active

Prompt: What would you report for `CCCCCCCC/C=C\CCCCCCCC(=O)NCc1ccc(O)c(OC)c1` ?
Completion: inactive

Prompt: What would you report for `OCCCc1cccnc1` ?
Completion: inactive

Prompt: What would you report for `CCCC(=O)OCC(COC(=O)CCC)OC(=O)CCC` ?
Completion: inactive

Prompt: What would you report for `O=CC1CC1` ?
Completion: inactive

Prompt: What would you report for `CCCCOCC` ?
Completion: inactive

These entries and their values trace back to PubChem BioAssay (Tox21).
